Below, each of the compounds is paired with its reported relative cell viability value.
System: HL-1
Assay Remarks: relative cell viability (CellTiter-Glo) vs DMSO control (% of DMSO control); higher = more viable cells
Condition Notes: oxygen condition: hypoxia 48 h (1% O2) + reoxygenation 24 h; 1000 nM
Counter-ions that a name gives are not always drawn.
Lab note: record just the number, no unit beside it.

Worked examples follow.
• NC[C@H](O)c1ccc(O)c(O)c1 [Noradrenaline bitartrate monohydrate] = 104
• O=C(c1ccccc1)c1ccc2n1CCC2C(=O)O (stereo not given) [Ketorolac] = 104
• N[C@@H](Cc1cc(I)c(Oc2cc(I)c(O)c(I)c2)c(I)c1)C(=O)O [L-Thyroxine] = 99.6
• C#CCC(Cc1cnc2nc(N)nc(N)c2n1)c1ccc(C(=O)N[C@@H](CCC(=O)O)C(=O)O)cc1 (stereo not given in full) [Pralatrexate] = 37.3
• C[C@H](Cc1cc2c(c(C(N)=O)c1)N(CCCO)CC2)NCCOc1ccccc1OCC(F)(F)F [Silodosin] = 102

What value of measured relative cell viability is listed for O=C(CCCN1CCC(O)(c2ccc(Cl)cc2)CC1)c1ccc(F)cc1 [Haloperidol] ?
102

Please give the result for CCCCC1=NC2(CCCC2)C(=O)N1Cc1ccc(-c2ccccc2-c2nnn[nH]2)cc1 [Irbesartan] too.
107

Then this compound: Clc1ccc(C(c2ccccc2Cl)C(Cl)Cl)cc1 (stereo not given) [Mitotane]
107

Further, for O=C1c2cccc3c2[C@H](CCC3)CN1[C@@H]1CN2CCC1CC2 [Palonosetron HCl] ?
112

Further, for CCCC(=O)Nc1ccc(OCC(O)CNC(C)C)c(C(C)=O)c1 (stereo not given) [Acebutolol HCl] ?
107

And for CCC[C@@H]1C[C@@H](C(=O)N[C@@H]([C@H]2O[C@H](SC)[C@H](O)[C@@H](O)[C@H]2O)[C@H](C)Cl)N(C)C1 [Clindamycin hydrochloride] ?
91.3

---

Test system: HL-1
Assay Remarks: relative cell viability (CellTiter-Glo) vs DMSO control (% of DMSO control); higher = more viable cells
Condition Notes: oxygen condition: hypoxia 48 h (1% O2) + reoxygenation 24 h; 1000 nM
Structures can show the parent of a compound that is named as a salt.
Just a reminder that ties go to no: only relative cell viability strictly below 100 counts as yes.

Solved entries (count: 6):
* Cc1ccccc1N1C(=O)c2cc(S(N)(=O)=O)c(Cl)cc2NC1C (centres undefined) [Metolazone] | no
* CCCc1cc(=O)[nH]c(=S)[nH]1 [Propylthiouracil] | no
* CCCNC(C)C(=O)Nc1c(C)csc1C(=O)OC (centres undefined) [Articaine HCl] | yes
* CNCCCC12CCC(c3ccccc31)c1ccccc12 [Maprotiline hydrochloride] | yes
* Clc1ccc(COC(Cn2ccnc2)c2ccc(Cl)cc2Cl)cc1 (centres undefined) [Econazole nitrate] | no
* CC=CC1=C(C(=O)O)N2C(=O)[C@@H](NC(=O)[C@H](N)c3ccc(O)cc3)[C@H]2SC1 [Cefprozil hydrate] | no

Say whether its relative cell viability is strictly beneath 100. Entry: CN1CCC[C@H]1c1cccnc1 [Nicotine Ditartrate]
no

Queued: COc1ccc([C@H]2CNC(=O)C2)cc1OC1CCCC1 [S-(+)-Rolipram]
yes

Moving on to NC(=O)c1ncn([C@@H]2O[C@H](CO)[C@@H](O)[C@H]2O)n1 [Ribavirin]
no

---

Test system: HL-1
Assay Remarks: relative cell viability (CellTiter-Glo) vs DMSO control (% of DMSO control); higher = more viable cells
Condition Notes: oxygen condition: normoxia 72 h; 5000 nM
Structures can show the parent of a compound that is named as a salt.
Examples of compounds with documented relative cell viability follow.
Could you respond with only the numeric value?

Recorded results for 5 compounds are shown here.
• CCc1ccc(CCOc2ccc(CC3SC(=O)NC3=O)cc2)nc1 (configuration not stated) [Pioglitazone hydrochloride] = 103
• CN1CCN2c3ccccc3Cc3ccccc3C2C1 (configuration not stated) [Mianserin hydrochloride] = 111
• COC(=O)[C@@H]1CC2=CC(=O)CC[C@]2(C)[C@@]23O[C@@H]2C[C@@]2(C)[C@@H](CC[C@@]24CCC(=O)O4)[C@H]13 = 104
• COCCc1ccc(OCC(O)CNC(C)C)cc1 (configuration not stated) [Metoprolol tartrate] = 111
• CCN(CC)CCOC(=O)c1ccc(N)cc1 = 110

# query: relative cell viability of entry COc1nc(C)nc(Cl)c1NC1=NCCN1
111

And the next one, O=C1c2c(O)ccc(O)c2C(=O)c2c(NCCNCCO)ccc(NCCNCCO)c21 [Mitoxantrone Hydrochloride] ?
3.38

Check CCC[C@@H]1C[C@@H](C(=O)N[C@@H]([C@H]2O[C@H](SC)[C@H](O)[C@@H](O)[C@H]2O)[C@H](C)Cl)N(C)C1 [Clindamycin hydrochloride] too.
86.2

Similarly, CC(C)c1nc(CN(C)C(=O)N[C@@H](CCN2CCOCC2)C(=O)N[C@H](CC[C@H](Cc2ccccc2)NC(=O)OCc2cncs2)Cc2ccccc2)cs1 [Cobicistat] ?
113

Then CCCc1nc(C(C)(C)O)c(C(=O)OCc2oc(=O)oc2C)n1Cc1ccc(-c2ccccc2-c2nnn[nH]2)cc1 ?
95.7

Next compound: COc1ccc(CN2CCN(C(c3ccc(F)cc3)c3ccc(F)cc3)CC2)c(OC)c1OC [Lomerizine HCl]
108

Try CCN(CC)CCOC(=O)C(c1ccccc1)c1ccccc1 [Adiphenine HCl] next.
110

And CN1[C@@H]2CC[C@H]1C[C@@H](OC(=O)c1c[nH]c3ccccc13)C2 ?
66

Same question, Nc1cccc2c1CN(C1CCC(=O)NC1=O)C2=O (configuration not stated) [Lenalidomide] this time
114

Follow-up item: COc1cc(OC)c(C(=O)CCCN2CCCC2)c(OC)c1 [Buflomedil HCl]
114

// repeat for O=c1oc2c(O)c(O)cc3c(=O)oc4c(O)c(O)cc1c4c23 and report
119

One more compound: O=C(O)[C@H](CC(=O)N1C[C@H]2CCCC[C@H]2C1)Cc1ccccc1 [Mitiglinide calcium]
110

---

System: HL-1
Assay Remarks: relative cell viability (CellTiter-Glo) vs DMSO control (% of DMSO control); higher = more viable cells
Condition Notes: oxygen condition: normoxia 72 h; 5000 nM
Where a name gives a salt, the structure may show the parent alone.
Measured relative cell viability of individual entries

Study these solved cases before continuing.
* CCCCOc1ccc(OCCCN2CCOCC2)cc1 [Pramoxine HCl] | 119
* CNC(=O)c1cc(Oc2ccc(NC(=O)Nc3ccc(Cl)c(C(F)(F)F)c3)cc2)ccn1 [Sorafenib] | 114
* C=C1/C(=C\C=C2/CCC[C@]3(C)[C@@H]([C@H](C)CCCC(C)(C)O)CC[C@@H]23)C[C@@H](O)C[C@@H]1O [Calcitriol] | 89.9
* CCCC(CCC)C(=O)O [Divalproex sodium] | 118

Fill in the blank: the reported relative cell viability of O=C(CCCN1CCN(c2ccccn2)CC1)c1ccc(F)cc1 [Azaperone] is ____.
111

---

Test system: HL-1
Assay Remarks: relative cell viability (CellTiter-Glo) vs DMSO control (% of DMSO control); higher = more viable cells
Condition Notes: oxygen condition: normoxia 72 h; 1000 nM
Attribute Measured: relative cell viability
Give your answer as a number; write no unit.

Illustrative cases are given below, each with its answer.
• C#Cc1cccc(Nc2ncnc3cc(OCCOC)c(OCCO)cc23)c1 = 105
• CCOC(=O)C1=C(C)NC(C)=C(C(=O)OC)C1c1cccc(Cl)c1Cl (centres undefined) = 98
• Nc1[nH]cnc2ncnc1-2 [Adenine] = 98.6

For HL-1, provide relative cell viability of C[C@@H](O[C@H]1OCCN(Cc2nn(P(=O)(O)O)c(=O)[nH]2)[C@H]1c1ccc(F)cc1)c1cc(C(F)(F)F)cc(C(F)(F)F)c1 [Fosaprepitant dimeglumine] please.
130

Field entry: OCCOCCN1CCN(C(c2ccccc2)c2ccc(Cl)cc2)CC1 (centres undefined) [Hydroxyzine 2HCl]
105

What do you have for Cc1nc2n(c(=O)c1CCN1CCC(c3noc4cc(F)ccc34)CC1)CCCC2 ?
104

Now consider CC(C)(CO)[C@@H](O)C(=O)NCCC(=O)O .
99.5

And for CNC(=O)CN(CCN(CCN(CC(=O)[O-])CC(=O)NC)CC(=O)[O-])CC(=O)[O-].[Gd+3] [Gadodiamide] ?
107

Another compound: Cc1c(OCC(F)(F)F)ccnc1C[S@@+]([O-])c1nc2ccccc2[nH]1
104

Entry CC(C)(OCc1nn(Cc2ccccc2)c2ccccc12)C(=O)O please
95.7

# iterate: Clc1ccc2c(c1)CCc1cccnc1C2=C1CCNCC1
104

---

System: HL-1
Assay Remarks: relative cell viability (CellTiter-Glo) vs DMSO control (% of DMSO control); higher = more viable cells
Condition Notes: oxygen condition: normoxia 72 h; 200 nM
Where a name gives a salt, the structure may show the parent alone.
Measured relative cell viability, listed per entry for reference.

- O=C(O)CCCN1CCC(O[C@@H](c2ccc(Cl)cc2)c2ccccn2)CC1 [Bepotastine Besilate]: 115
- C[C@]12CC[C@@H]3c4ccc(O)cc4CC[C@H]3[C@@H]1CC[C@@H]2O: 103
- CN1CCCCC1CCN1c2ccccc2Sc2ccc([S+](C)[O-])cc21 (stereo unspecified) [Mesoridazine Besylate]: 102
- CC(C[N+](C)(C)C)OC(N)=O (stereo unspecified) [Bethanechol chloride]: 104
- CCOc1ccc2ccccc2c1C(=O)N[C@@H]1C(=O)N2[C@@H]1SC(C)(C)[C@@H]2C(=O)O [nafcillin sodium monohydrate]: 101
- CN1C2CCCC1CC(NC(=O)c1nn(C)c3ccccc13)C2 (stereo unspecified) [Granisetron HCl]: 102

Now examine the next entry.
What relative cell viability value was documented for this compound, CCC(=O)O[C@]1(C(=O)CCl)[C@@H](C)C[C@H]2[C@@H]3CCC4=CC(=O)C=C[C@]4(C)[C@@]3(F)[C@@H](O)C[C@@]21C [Clobetasol propionate] ?
90.1
